B1: E3 ubiquitin-protein ligase TRIM69 (Homo sapiens), Q86WT6 (parent)
chain: MEVSTNPSSNIDPGDYVEMNDSITHLPSKVVIQDITMELHCPLCNDWFRDPLMLSCGHNFCEACIQDFWRLQAKETFCPECKMLCQYNNCTFNPVLDKLVEKIKKLPLLKGHPQCPEHGENLKLFSKPDGKLICFQCKDARLSVGQSKEFLQISDAVHFFTEELAIQQGQLETTLKELQTLRNMQKEAIAAHKENKLHLQQHVSMEFLKLHQFLHSKEKDILTELREEGKALNEEMELNLSQLQEQCLLAKDMLVSIQAKTEQQNSFDFLKDITTLLHSLEQGMKVLATRELISRKLNLGQYKGPIQYMVWREMQDTLCPGLSPLTLDPKTAHPNLVLSKSQTSVWHGDIKKIMPDDPERFDSSVAVLGSRGFTSGKWYWEVEVAKKTKWTVGVVRESIIRKGSCPLTPEQGFWLLRLRNQTDLKALDLPSFSLTLTNNLDKVGIYLDYEGGQLSFYNAKTMTHIYTFSNTFMEKLYPYFCPCLNDGGENKEPLHILHPQ

# Variants of: B1
# Test Context: with at5g1_human ATP5MC1, P05496
# Sequence (P05496 whole entry): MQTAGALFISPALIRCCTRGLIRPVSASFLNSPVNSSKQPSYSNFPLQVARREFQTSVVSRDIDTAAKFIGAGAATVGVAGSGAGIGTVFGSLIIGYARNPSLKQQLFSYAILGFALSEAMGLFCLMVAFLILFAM

# Alteration, effect of a mutation on the interaction
records = [
    ("Q301H", "with no effect"),
    ("I399F", "with no effect"),
    ("A190V", "with no effect"),
]

Measured values drawn from IntAct's records for PubMed 31515488 for this set.
